- Tested on: Cdk1 phosphorylated on tyrosine 15
- Test Protocol: High-content imaging of pCdk1 Y15 by immunofluorescence in ACHN cells
- Format: cell-based
- Cond: Homo sapiens, high-content imaging (IF), 4 h, 7 to 5000 nM, read-out: CDK1 Tyr15 Phosphorylation EC50 (IC50)
Entries annotated with measured EC50

COc1nc(Nc2ccc(OCCN3CCOCC3)c(C)c2)ncc1C(=O)Nc1c(Cl)ccc(O)c1C : > 1000 nM
CCCOc1cc(Nc2ncc(C(=O)Nc3c(Cl)cccc3Br)c(OC)n2)ccc1C1CCN(C)CC1 : 100 to 500 nM
COc1nc(Nc2cnn([C@H]3CCCNCC3)c2)ncc1C(=O)Nc1c(Cl)cccc1Cl (single isomer, unassigned) : > 1000 nM

Task item: If you can, please state the reported EC50 value of COc1nc(Nc2ccc(OC3CCN(C)CC3)c(C)c2)ncc1C(=O)Nc1c(Cl)ccc(O)c1C .
Reply: 100 to 500 nM

Task item: If you can, please state the reported EC50 value of C#Cc1cccc(Cl)c1NC(=O)c1cnc(Nc2ccc(C3CCN(C)CC3)c(C)c2)nc1OC .
Reply: ≤ 100 nM

Task item: If you can, please state the reported EC50 value of COc1nc(Nc2ccc(C3CCN(C)CC3)c(C)c2)ncc1C(=O)Nc1c(Cl)ccc(O)c1C .
Reply: ≤ 100 nM

Task item: If you can, please state the reported EC50 value of COc1nc(Nc2ccc(OC3CCN(C)CC3)c(C)c2)ncc1C(=O)Nc1c(Cl)cccc1Cl .
Reply: 100 to 500 nM

Task item: If you can, please state the reported EC50 value of CCOc1nc(Nc2cnn([C@H](C)CNC)c2)ncc1C(=O)Nc1c(Cl)cccc1Br .
Reply: > 1000 nM

Task item: If you can, please state the reported EC50 value of COc1nc(Nc2cnn([C@@H]3CCCNCC3)c2)ncc1C(=O)Nc1c(Cl)cccc1Cl (single isomer, unassigned) .
Reply: > 1000 nM

Task item: If you can, please state the reported EC50 value of COc1nc(Nc2ccc3c(c2)CN(C)CC3)ncc1C(=O)Nc1c(Cl)cccc1Cl .
Reply: ≤ 100 nM

* * *

- System: Cdk1 phosphorylated on tyrosine 15
- Test Protocol: High-content imaging of pCdk1 Y15 by immunofluorescence in ACHN cells
- Type: cell-based
- Cond: Homo sapiens, high-content imaging (IF), 4 h, 7 to 5000 nM, read-out: CDK1 Tyr15 Phosphorylation EC50 (IC50)
- Procedure: ACHN renal cell carcinoma cell line (ATCC) was cultured in Minimum Essential Medium Eagle supplemented with 10% fetal calf serum (Sigma), 1% Penicillin-Streptomycin and 10 mM HEPES buffer (HyClone). Cell cultures were kept in a humidified incubator at 37° C. and 5% CO2. Cells were routinely tested for Mycoplasma contamination. High-content imaging of ACHN renal cell carcinoma cells was used for quantification of CDK1 phosphorylated on tyrosine 15 by immunofluorescence (“IF”). […]
Entries annotated with measured EC50

Task item: If you can, please state the reported EC50 value of COc1nc(Nc2ccc(N3CCCNCC3)c(C)c2)ncc1C(=O)Nc1c(Cl)cccc1Br .
Reply: 100 to 500 nM

Task item: If you can, please state the reported EC50 value of COc1nc(Nc2ccc(OCCCN(C)C)c(C)c2)ncc1C(=O)Nc1c(Cl)ccc(O)c1C .
Reply: 100 to 500 nM

Task item: If you can, please state the reported EC50 value of COc1nc(Nc2ccc(C3CCN(C)CC3)c(C#N)c2)ncc1C(=O)Nc1c(Cl)ccc(O)c1C .
Reply: 100 to 500 nM

Source: patent US20260207618A1
